Reported pIC50 is given for each of the following molecules.
molecular target: KRAS G12V (Homo sapiens (Human), UniProt P01116+P62937, G12V); assay: Ras-Raf (BRAF RBD) disruption / FRET / MOA assay, KRAS G12V; type: biochemical; conditions: read-out: IC50* KRAS G12V FRET data
Sequence (P01116-2 other isoform, or with tags, fused parts or gaps G12V): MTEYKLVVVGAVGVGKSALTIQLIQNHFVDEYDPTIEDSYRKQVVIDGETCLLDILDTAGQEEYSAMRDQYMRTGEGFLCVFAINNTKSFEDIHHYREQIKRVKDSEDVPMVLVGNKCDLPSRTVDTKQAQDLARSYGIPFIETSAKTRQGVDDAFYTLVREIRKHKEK
Sequence (P62937 whole entry): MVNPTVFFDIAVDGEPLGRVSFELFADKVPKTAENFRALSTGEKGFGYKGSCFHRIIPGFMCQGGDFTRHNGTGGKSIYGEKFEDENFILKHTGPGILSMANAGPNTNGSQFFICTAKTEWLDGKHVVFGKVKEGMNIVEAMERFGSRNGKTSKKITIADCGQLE
pIC50: −log10 of the molar value.

- MOLECULE: "C=CC(=O)N(C)[C@H]1CN(C(=O)N(C)[C@H](C(=O)N[C@H]2Cc3nc(cs3)-c3ccc4c(c3)c(c(-c3cccnc3[C@H](C)OC)n4CC)CC(C)(C)COC(=O)[C@@H]3CCCN(N3)C2=O)C(C)C)C[C@@H]1F (atropisomer, axis not shown)"
  pIC50: "6.00 to 7.00"

Q: I am curious: what pIC50 value has been reported for C=CC(=O)N1C[C@@H](C(=O)N(C)[C@@H](C(=O)N[C@H]2Cc3cc(O)cc(c3)-c3ccc4c(c3)c(c(-c3cccnc3COC)n4CC)CC(C)(C)COC(=O)[C@@H]3CCCN(N3)C2=O)C(C)C)C[C@H]1C ?
A: 5.00 to 6.00

Q: Entry CO[C@@H](C)c1ncccc1-c1c2c3cc(ccc3n1CC(F)(F)F)-c1cccc(c1)C[C@H](NC(=O)[C@H](C(C)C)N(C)C(=O)[C@H]1CCN(C(=O)C#CC(C)(C)N(C)C)C1)C(=O)N1CCC[C@H](N1)C(=O)OCC(C)(C)C2 (atropisomer, axis not shown) : reported pIC50 = ?
A: 5.00 to 6.00

Q: Which pIC50 value is on record for C=CC(=O)N1CCC2(CC1)CCN([C@H](C(=O)N[C@H]1Cc3cc(O)cc(c3)-c3ccc4c(c3)c(c(-c3cccnc3[C@H](C)OC)n4CC)CC(C)(C)COC(=O)[C@@H]3CCCN(N3)C1=O)C(C)C)C2=O (atropisomer, axis not shown) ?
A: 6.00 to 7.00
